From: PubChem BioAssay AID1963974

Test system: 648629-189-R-J1-PDC spheroids with HUVEC/MSC, viability
Assay: Anticancer human tumor 648629-189-R-J1-PDC patient-derived bladder carcinoma cell line growth inhibition [PI3K]
Details: second compound 0.0316 µM; first compound 0.1 µM; stronger effect = lower value

compound	measurementUnit	viability, T/C
C[C@@H](NC(=O)c1ncnc(N)c1Cl)c1ncc(C(=O)Nc2cc(C(F)(F)F)c(Cl)cn2)s1 + COc1c(OCCCN2CCOCC2)ccc2c3n(c(=NC(=O)c4cnc(N)nc4)nc12)CCN3	%	93.8
CNC(=O)c1ccc(N2C(=S)N(c3ccc(C#N)c(C(F)(F)F)c3)C(=O)C2(C)C)cc1F + CC(Nc1ccc2c(c1)OCCn1cc(N3C(=O)OCC3C(F)F)nc1-2)C(N)=O	%	107
CC(=O)c1c(C)c2cnc(Nc3ccc(N4CCNCC4)cn3)nc2n(C2CCCC2)c1=O + CC(Nc1ncnc2nc[nH]c12)c1cc2cccc(Cl)c2c(=O)n1-c1ccccc1	%	102

###

System: 648629-189-R-J1-PDC spheroids with HUVEC/MSC, viability
Assay: Anticancer human tumor 648629-189-R-J1-PDC cell line growth inhibition [PI3K];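 also: spheroids exposed to agents for seven days before reading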
Settings: curve of first compound; second compound 10 µM
pIC50: −log10 of the molar value.

compound	pIC50
Cn1ncnc1[C@H]1c2n[nH]c(=O)c3cc(F)cc(c23)N[C@@H]1c1ccc(F)cc1 + Cc1nc(NC(=O)N2CCCC2C(N)=O)sc1-c1ccnc(C(C)(C)C(F)(F)F)c1	> 9.50
Cn1cnc2c(F)c(Nc3ccc(Br)cc3Cl)c(C(=O)NOCCO)cc21 + CC(Nc1ncnc2nc[nH]c12)c1cc2cccc(Cl)c2c(=O)n1-c1ccccc1	< 5.52
CCN1CCN(Cc2ccc(Nc3ncc(F)c(-c4cc(F)c5nc(C)n(C(C)C)c5c4)n3)nc2)CC1 + CC(Nc1ncnc2nc[nH]c12)c1cc2cccc(Cl)c2c(=O)n1-c1ccccc1	< 6.00
CC(Cn1ccc(-c2ccc(C#N)c(Cl)c2)n1)NC(=O)c1cc(C(C)O)[nH]n1 (configuration not stated) + CC(Nc1ncnc2nc[nH]c12)c1cc2cccc(Cl)c2c(=O)n1-c1ccccc1	< 5.00
CNC(=O)c1ccc(N2C(=S)N(c3ccc(C#N)c(C(F)(F)F)c3)C(=O)C2(C)C)cc1F + Cc1nc(NC(=O)N2CCCC2C(N)=O)sc1-c1ccnc(C(C)(C)C(F)(F)F)c1	> 7.50
Cn1cnc2c(F)c(Nc3ccc(Br)cc3Cl)c(C(=O)NOCCO)cc21 + Cc1nc(NC(=O)N2CCCC2C(N)=O)sc1-c1ccnc(C(C)(C)C(F)(F)F)c1	> 8.02
Cn1ncc(Cl)c1-c1cc(C(=O)NC(CN)Cc2cccc(F)c2)sc1Cl (configuration not stated) + CC(Nc1ncnc2nc[nH]c12)c1cc2cccc(Cl)c2c(=O)n1-c1ccccc1	6.32
CCN1CCN(Cc2ccc(Nc3ncc(F)c(-c4cc(F)c5nc(C)n(C(C)C)c5c4)n3)nc2)CC1 + Cc1nc(NC(=O)N2CCCC2C(N)=O)sc1-c1ccnc(C(C)(C)C(F)(F)F)c1	> 8.50
CNC(=O)c1ccc(N2C(=S)N(c3ccc(C#N)c(C(F)(F)F)c3)C(=O)C2(C)C)cc1F + CC(Nc1ncnc2nc[nH]c12)c1cc2cccc(Cl)c2c(=O)n1-c1ccccc1	< 5.00
CC(=O)c1c(C)c2cnc(Nc3ccc(N4CCNCC4)cn3)nc2n(C2CCCC2)c1=O + Cc1nc(NC(=O)N2CCCC2C(N)=O)sc1-c1ccnc(C(C)(C)C(F)(F)F)c1	> 9.50
Cn1nccc1Nc1nccc(-c2ccn(C(CO)c3ccc(Cl)c(F)c3)c(=O)c2)n1 (configuration not stated) + Cc1nc(NC(=O)N2CCCC2C(N)=O)sc1-c1ccnc(C(C)(C)C(F)(F)F)c1	> 7.50
CC(C)NCC(C(=O)N1CCN(c2ncnc3c2C(C)CC3O)CC1)c1ccc(Cl)cc1 (configuration not stated) + Cc1nc(NC(=O)N2CCCC2C(N)=O)sc1-c1ccnc(C(C)(C)C(F)(F)F)c1	> 7.50
CC(C)n1nc(-c2ccc3oc(N)nc3c2)c2c(N)ncnc21 + Cc1nc(NC(=O)N2CCCC2C(N)=O)sc1-c1ccnc(C(C)(C)C(F)(F)F)c1	> 9.50
Cn1ncnc1[C@H]1c2n[nH]c(=O)c3cc(F)cc(c23)N[C@@H]1c1ccc(F)cc1 + CC(Nc1ncnc2nc[nH]c12)c1cc2cccc(Cl)c2c(=O)n1-c1ccccc1	< 7.00
Cn1ncc(Cl)c1-c1cc(C(=O)NC(CN)Cc2cccc(F)c2)sc1Cl (configuration not stated) + Cc1nc(NC(=O)N2CCCC2C(N)=O)sc1-c1ccnc(C(C)(C)C(F)(F)F)c1	> 7.50
Cn1nccc1Nc1nccc(-c2ccn(C(CO)c3ccc(Cl)c(F)c3)c(=O)c2)n1 (configuration not stated) + CC(Nc1ncnc2nc[nH]c12)c1cc2cccc(Cl)c2c(=O)n1-c1ccccc1	< 5.00
CC1(C)CCC(CN2CCN(c3ccc(C(=O)NS(=O)(=O)c4ccc(NCC5CCOCC5)c([N+](=O)[O-])c4)c(Oc4cnc5[nH]ccc5c4)c3)CC2)=C(c2ccc(Cl)cc2)C1 + CC(Nc1ncnc2nc[nH]c12)c1cc2cccc(Cl)c2c(=O)n1-c1ccccc1	< 5.00
CCCS(=O)(=O)Nc1ccc(F)c(C(=O)c2c[nH]c3ncc(-c4ccc(Cl)cc4)cc23)c1F + CC(Nc1ncnc2nc[nH]c12)c1cc2cccc(Cl)c2c(=O)n1-c1ccccc1	5.41
C#Cc1c(F)ccc2cc(O)cc(-c3ncc4c(N5CC6CCC(C5)N6)nc(OCC56CCCN5CC(F)C6)nc4c3F)c12 (configuration not stated) + Cc1nc(NC(=O)N2CCCC2C(N)=O)sc1-c1ccnc(C(C)(C)C(F)(F)F)c1	> 7.50
CC(C)n1nc(-c2ccc3oc(N)nc3c2)c2c(N)ncnc21 + CC(Nc1ncnc2nc[nH]c12)c1cc2cccc(Cl)c2c(=O)n1-c1ccccc1	7.49
C[C@@H](NC(=O)c1ncnc(N)c1Cl)c1ncc(C(=O)Nc2cc(C(F)(F)F)c(Cl)cn2)s1 + CC(Nc1ncnc2nc[nH]c12)c1cc2cccc(Cl)c2c(=O)n1-c1ccccc1	< 5.00
CC(=O)c1c(C)c2cnc(Nc3ccc(N4CCNCC4)cn3)nc2n(C2CCCC2)c1=O + CC(Nc1ncnc2nc[nH]c12)c1cc2cccc(Cl)c2c(=O)n1-c1ccccc1	< 7.00
